System tested: Beta-adrenergic receptor kinase 1 (Homo sapiens) (UniProt P25098)
Sequence (P25098 whole entry, looked up): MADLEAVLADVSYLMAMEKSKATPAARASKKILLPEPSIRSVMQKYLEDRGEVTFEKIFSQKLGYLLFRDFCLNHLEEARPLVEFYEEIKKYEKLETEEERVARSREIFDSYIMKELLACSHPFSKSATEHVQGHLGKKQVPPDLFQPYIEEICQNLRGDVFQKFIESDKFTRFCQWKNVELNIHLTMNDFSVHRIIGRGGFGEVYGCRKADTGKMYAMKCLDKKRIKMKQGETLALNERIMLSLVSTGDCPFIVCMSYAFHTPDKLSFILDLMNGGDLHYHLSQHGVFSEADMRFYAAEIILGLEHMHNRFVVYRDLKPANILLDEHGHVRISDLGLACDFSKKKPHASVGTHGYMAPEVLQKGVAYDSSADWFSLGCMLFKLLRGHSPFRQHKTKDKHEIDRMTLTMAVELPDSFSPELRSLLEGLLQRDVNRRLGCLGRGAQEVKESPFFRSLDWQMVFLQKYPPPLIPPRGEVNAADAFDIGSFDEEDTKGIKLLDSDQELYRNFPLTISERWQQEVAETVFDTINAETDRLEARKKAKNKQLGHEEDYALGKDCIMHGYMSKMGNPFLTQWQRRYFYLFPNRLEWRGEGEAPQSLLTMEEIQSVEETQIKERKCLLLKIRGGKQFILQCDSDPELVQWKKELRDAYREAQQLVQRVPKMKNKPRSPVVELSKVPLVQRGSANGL
Assay protocol: GRK2 kinase inhibitors, rhodopsin substrate, late-stage follow-up, orthogonal assay for GRK2 aptamer-displacement inhibitor project, biochemical, set 2 (AID 588482)
Experimental conditions: GRK2 rhodopsin phosphorylation, 32P incorporation, SDS-PAGE; at 200 µM; active compounds read high
Parameter: inhibition (%)

- COc1ccc([N+](=O)[O-])cc1NC(=O)CCS(=O)(=O)c1ccc(Br)cc1: 30.9
- C#CCSc1nc2sc3c(c2c(=O)n1C)CCC3: 36.7
- O=C(O)Cc1ccc(-n2cccc2)cc1: 46.5
- COC(=O)c1ccccc1NC(=O)CCS(=O)(=O)c1ccc(Br)s1: -18.3
- Cc1cc2ccccc2n1CCNC(=O)C(C)Oc1ccccc1 (stereo not drawn): -3.83

1 = Cc1ccc(CCNC(=O)CCS(=O)(=O)c2ccc(Br)cc2)cc1
2 = NS(=O)(=O)c1ccc(CCNC(=O)CCS(=O)(=O)c2ccc(Br)cc2)cc1
Which entry shows the lesser value of inhibition here, 1 or 2 ? State the label of the item chosen. 1

1 = COc1ccc(CCNC(=O)CCS(=O)(=O)c2ccc(Br)cc2)cc1OC
2 = CCN(CC)c1ccc(NC(=O)CCS(=O)(=O)c2ccc(Br)cc2)c(C)c1
3 = COc1ccc(Cl)cc1NC(=O)CCS(=O)(=O)c1ccc(Br)cc1
4 = CCOc1ccccc1NC(=O)CCS(=O)(=O)c1ccc(Br)cc1
Order the items by recorded inhibition; the first position goes to the largest value. Please list the labels in the order you were asked to rank them. 2, 3, 4, 1

All values here come from PubChem BioAssay AID588482.
